Reference source for all entries: ChEMBL document CHEMBL5058577

tested on: HEK-293T; assay: Multiplex assay against HEK293T; assay type: toxicity, cell-based; details: human, 12 h, 1 µM, compound concentration 1 uM, replicate 2
Threshold 50%: Population Mitotic Cells (%) strictly smaller gives 1 (yes), otherwise 0 (no).

Population Mitotic Cells (%) strictly < 50% for this compound? Cc1sc2c(c1C)C(c1ccc(Cl)cc1)=N[C@@H](CC(=O)NCCCCCCCCNC(=O)COc1cccc3c1C(=O)N(C1CCC(=O)NC1=O)C3=O)c1nnc(C)n1-2 (some centres not stated) 1 (yes)

Is 50% strictly greater than the compound's reported Population Mitotic Cells (%)? compound: "COc1cccc2c1c(NS(=O)(=O)c1ccc(Cl)s1)nn2Cc1cccc(CNC(=O)C(C)(C)O)c1" 0 (no)

Hello, I'm reviewing records and need to know if Population Mitotic Cells (%) of "CCCOc1ccc2[nH]cc(C3=CCNCC3)c2n1.Cl" is below 50%. Could you check? 0 (no)

Item "CCCCC(=O)N(Cc1ccc(-c2ccccc2-c2nnn[nH]2)cc1)[C@H](C(=O)O)C(C)C" : Population Mitotic Cells (%) beneath 50%, strictly? 0 (no)

In plain terms, does Cl.NCCc1ccc(O)c(O)c1 [DOPAMINE HYDROCHLORIDE] come in under 50% for Population Mitotic Cells (%)? 1 (yes)

Does the reported Population Mitotic Cells (%) of the following compound sit strictly below 50%? COC[C@@H](c1ccc(C(F)(F)F)cc1)N1CCN(C2(C)CCN(C(=O)c3c(C)ncnc3C)CC2)C[C@@H]1C.O=C(O)/C=C\C(=O)O [VICRIVIROC MALEATE] 0 (no)

Threshold test, Population Mitotic Cells (%) < 50%: "Cc1cccc(NC(=O)CN2CCC(c3ccccn3)CC2)c1.Cl.Cl" 0 (no)
